Test: Toxicity in Artemia salina
Format: organism-based
Settings: in vivo
Measured Quantity: LC50 (mg/L)

structure_smiles_string=CCCCCCCCCCCC[C@H](O)[C@@H]1CC[C@H]([C@H](O)CCCCC(=O)CCCCC[C@@H](O)CC2=C[C@H](C)OC2=O)O1 experimental_result=1.8
structure_smiles_string=CCCCCCCCCCCC[C@H](O)[C@@H]1CC[C@H]([C@H](O)CCCC[C@H](O)CCCCC[C@@H](O)CC2=C[C@H](C)OC2=O)O1 experimental_result=2.3
structure_smiles_string=CCCCCCCCCCCC[C@@H](O)[C@H]1CC[C@H]([C@H](O)CC[C@@H](O)CCCCCCC[C@@H](O)CC2=C[C@H](C)OC2=O)O1 experimental_result=7.1

* * *

Let's look at some compounds and their measured IC50.
Test system: HT-29
Experiment: Cytotoxicity against human HT29 cells
Assay type: functional, cell-based
Measured Quantity: IC50 (µg/mL)

structure_smiles_string=CCCCCCCCCCCC[C@@H](O)[C@H]1CC[C@H]([C@H]2CC[C@H](CCCCCCC[C@@H](O)CC3=C[C@H](C)OC3=O)OCO2)O1 target_or_system=HT-29 measured_quantity=IC50 experimental_result=1
structure_smiles_string=CCCCCCCCCCCC[C@@H](O)[C@H]1CC[C@H]([C@H](O)CC[C@@H](O)CCCCCCC[C@@H](O)CC2=C[C@H](C)OC2=O)O1 target_or_system=HT-29 measured_quantity=IC50 experimental_result=4.4
structure_smiles_string=CCCCCCCCCCCC[C@H](O)[C@@H]1CC[C@H]([C@H](O)CCCCC(=O)CCCCC[C@@H](O)CC2=C[C@H](C)OC2=O)O1 target_or_system=HT-29 measured_quantity=IC50 experimental_result=0.0009
structure_smiles_string=CCCCCCCCCCCC[C@@H](O)[C@H]1CC[C@H]([C@H](O)CC[C@H](O)CCCCCCC[C@@H](O)CC2=C[C@H](C)OC2=O)O1 target_or_system=HT-29 measured_quantity=IC50 experimental_result=1.8
structure_smiles_string=CCCCCCCCCCCC[C@@H]1OCO[C@H](CCC[C@H](O)CCCCC[C@@H](O)CC2=C[C@H](C)OC2=O)[C@@H]2CC[C@@H]1O2 target_or_system=HT-29 measured_quantity=IC50 experimental_result=2.1
structure_smiles_string=CCCCCCCCCCCCCC[C@H](O)[C@@H]1CC[C@H]([C@H](O)CC[C@H](O)CCCCC[C@@H](O)CC2=C[C@H](C)OC2=O)O1 target_or_system=HT-29 measured_quantity=IC50 experimental_result=0.0053

* * *

Experiment: Toxicity in Artemia salina
Format: organism-based
Details: in vivo
The following compounds are shown together with reported LC50 values.
Measured Quantity: LC50 (µg/mL)

structure_smiles_string=CCCCCCCCCCCCCC[C@H](O)[C@@H]1CC[C@H]([C@H](O)CC[C@H](O)CCCCC[C@@H](O)CC2=C[C@H](C)OC2=O)O1 experimental_result=5.2
structure_smiles_string=CCCCCCCCCCCCCC[C@@H](O)[C@H]1CC[C@H]([C@H](O)CC[C@H](O)CCCCC[C@@H](O)CC2=C[C@H](C)OC2=O)O1 experimental_result=0.6
structure_smiles_string=CCCCCCCCCCCC[C@@H](O)[C@H]1CC[C@H]([C@H](O)CC[C@H](O)CCCCCCC[C@@H](O)CC2=C[C@H](C)OC2=O)O1 experimental_result=4.9
